RUN_CONDITIONS: in acetic acid, 398.5 K
ASSAY_READOUT: solubility (mole fraction)
Give your answer as a number; write no unit.

[Q] Name the recorded solubility (mole fraction) for "COC(=O)c1ccc2cc(C(=O)OC)ccc2c1" .
[A] 0.0564

----------
RUN_CONDITIONS: in DMAc, 330.38 K
ASSAY_READOUT: solubility (mole fraction)
Give your answer as a number; write no unit.

[Q] Name the recorded solubility (mole fraction) for "COC(=O)c1ccc2cc(C(=O)OC)ccc2c1" .
[A] 0.0129

----------
RUN_CONDITIONS: in NMP, 308.77 K
ASSAY_READOUT: solubility (mole fraction)
Give your answer as a number; write no unit.

[Q] Name the recorded solubility (mole fraction) for "COC(=O)c1ccc2cc(C(=O)OC)ccc2c1" .
[A] 0.00669
